# Tested on: 3′ UTR of the TNFα gene
# experiment_description: cell-based luciferase reporter assay, 5B cell line (luciferase gene with entire 3′ UTR of the TNFα gene)
# Parameters: species or system mouse
# setup_conditions: 10 μM compound; ratio of 5B to control 3B cell line
reported_property: Luciferase 5B/3B (% of DMSO control 5B)/(% of DMSO control 3B)

O=C(N[C@@H](Cc1ccccc1)C(=O)N1CCN(C(=O)CCCC(=O)N2CCN(c3ccccc3)CC2)CC1)c1ccc(C(=O)c2ccccc2)cc1; 74 (% of DMSO control 5B)/(% of D
C/C(=N\NC(=N)N)c1cccc(C(=O)N[C@@H](CC(C)C)C(=O)N2CCN(C(=O)[C@H](Cc3ccccc3)NCc3ccccc3)CC2)c1; 90 (% of DMSO control 5B)/(% of D
CC(=NN=C(N)N)c1cccc(C(=O)NC(CC(C)C)C(=O)NCCCNC(=O)C(C)NC(=O)c2ccc(C(=NN=C(N)N)c3ccccc3)cc2)c1 (mixture of isomers); 71 (% of DMSO control 5B)/(% of D
CC(=NN=C(N)N)c1cccc(C(=O)NC(CC(C)C)C(=O)N2CCN(C(=O)C(CC(C)C)NC(=O)c3ccc(C(=NN=C(N)N)c4ccccc4)cc3)CC2)c1 (mixture of isomers); 54 (% of DMSO control 5B)/(% of D
CC(C)CC(NC(=O)c1ccc([N+](=O)[O-])cc1)C(=O)N1CCN(C(=O)C(Cc2ccccc2)NC(=O)c2ccc(C(=NNC(=N)N)c3ccccc3)cc2)CC1 (mixture of isomers); 37 (% of DMSO control 5B)/(% of D
CC(=NN=C(N)N)c1cccc(C(=O)NC(Cc2ccccc2)C(=O)N2CCN(C(=O)C(CC(C)C)NC(=O)c3ccc(C(=NN=C(N)N)c4ccccc4)cc3)CC2)c1 (mixture of isomers); 49 (% of DMSO control 5B)/(% of D
CC(C)CC(NC(=O)c1ccc(C(=NN=C(N)N)c2ccccc2)cc1)C(=O)NCCCNC(=O)C(Cc1ccccc1)NC(=O)c1ccc(C(=NN=C(N)N)c2ccccc2)cc1 (mixture of isomers); 26 (% of DMSO control 5B)/(% of D
CC(C)C[C@H](NC(=O)c1ccc(C(=O)c2ccccc2)cc1)C(=O)N1CCN(C(=O)CCC(=O)N2CCN(c3ccccc3)CC2)CC1; 52 (% of DMSO control 5B)/(% of D

Alright, here's another molecule for you.
For the molecule shown here, CC(C)CC(NC(=O)c1ccc(C(=NNC(=N)N)c2ccccc2)cc1)C(=O)N1CCN(C(=O)C(Cc2ccccc2)NC(=O)CCc2cccnc2)CC1 (mixture of isomers) , give the reported Luciferase 5B/3B (% of DMSO control 5B)/(% of DMSO control 3B).
58 (% of DMSO control 5B)/(% of D

====

I'd appreciate it if you could supply Luciferase 5B/3B (% of DMSO control 5B)/(% of DMSO control 3B) values for the items below.
# Tested on: 3′ UTR of the TNFα gene
# experiment_description: cell-based luciferase reporter assay, 5B cell line (luciferase gene with entire 3′ UTR of the TNFα gene)
# Set-up: species or system mouse
# setup_conditions: 10 μM compound; ratio of 5B to control 3B cell line

Examples with their reported Luciferase 5B/3B (% of DMSO control 5B)/(% of DMSO control 3B) follow.
CC(C)C[C@H](NC(=O)c1ccccc1)C(=O)N1CCN(C(=O)[C@H](Cc2ccccc2)NC(=O)c2ccc(/C(=N/N=C(N)N)c3ccccc3)cc2)CC1.O=C(O)C(F)(F)F [MES 10249]; 68 (% of DMSO control 5B)/(% of D
CC(C)CC(NC(=O)c1ccccc1)C(=O)N1CCN(C(=O)C(Cc2ccccc2)NC(=O)c2ccc(C(=NNC(=N)N)c3ccccc3)cc2)CC1 (mixture of isomers) [MES 10222]; 49 (% of DMSO control 5B)/(% of D
CC(=NN=C(N)N)c1cccc(C(=O)NC(CC(C)C)C(=O)NCCCNC(=O)C(Cc2ccccc2)NC(=O)c2ccc(C(=NN=C(N)N)c3ccccc3)cc2)c1 (mixture of isomers) [MES 11562]; 38 (% of DMSO control 5B)/(% of D

Given the molecule CC(C)CC(NC(=O)c1ccc(C(=NNC(=N)N)c2ccccc2)cc1)C(=O)N1CCN(C(=O)C(Cc2ccccc2)NC(=O)c2cnccn2)CC1 (mixture of isomers) [MES 10235] , what is its reported Luciferase 5B/3B (% of DMSO control 5B)/(% of DMSO control 3B)?
75 (% of DMSO control 5B)/(% of D

====

Provide the reported TNFα Secretion (% of DMSO control) of each item.
# Test system: TNFα
# experiment_description: ELISA of TNFα secreted into the media after LPS
# Format: cell-based
# setup_conditions: 10 μM compound, 1 h, then LPS

CC(C)CC(NC(=O)c1ccc(C(=NN=C(N)N)c2ccccc2)cc1)C(=O)NCCCNC(=O)C(Cc1ccccc1)NC(=O)c1ccc(C(=NN=C(N)N)c2ccccc2)cc1 (mixture of isomers); 41 % of DMSO control
CC(=NNC(=N)N)c1cccc(C(=O)NC(CC(C)C)C(=O)N2CCN(C(=O)C(Cc3ccc(-c4ccccc4)cc3)NC(=O)c3ccc(C(=NNC(=N)N)c4ccccc4)cc3)CC2)c1 (mixture of isomers); 36 % of DMSO control
COc1ccc(CC(NC(=O)c2ccc(C(=NNC(=N)N)c3ccccc3)cc2)C(=O)N2CCN(C(=O)C(CC(C)C)NC(=O)c3ccc(C(=NNC(=N)N)c4ccccc4)cc3)CC2)cc1 (mixture of isomers); 39 % of DMSO control
CC(C)CC(NC(=O)c1ccccc1)C(=O)N1CCN(C(=O)C(Cc2ccccc2)NC(=O)c2ccc(C(=NNC(=N)N)c3ccccc3)cc2)CC1 (mixture of isomers); 49 % of DMSO control
CC(=NNC(=N)N)c1cccc(C(=O)N[C@@H](CC(C)C)C(=O)N2CCN(C(=O)[C@H](Cc3ccccc3)NC(=O)c3ccc(C(=O)c4ccccc4)cc3)CC2)c1.O=C(O)C(F)(F)F; 42 % of DMSO control

List TNFα Secretion (% of DMSO control) for every entry below, keeping the order given.
1. CC(C)C[C@H](NC(=O)c1ccccc1)C(=O)N1CCN(C(=O)[C@H](Cc2ccccc2)NC(=O)c2ccc(/C(=N/N=C(N)N)c3ccccc3)cc2)CC1.O=C(O)C(F)(F)F
2. CC(=NNC(=N)N)c1cccc(C(=O)NC(CC(C)C)C(=O)N2CCN(C(=O)C(Cc3ccc4ccccc4c3)NC(=O)c3ccc(C(=NNC(=N)N)c4ccccc4)cc3)CC2)c1 (mixture of isomers)
3. CC(C)C[C@H](NC(=O)c1ccc(C(=NNC(=N)N)c2ccccc2)cc1)C(=O)N1CCN(C(=O)[C@H](Cc2ccccc2)NC(=O)c2ccc(C(=O)c3ccccc3)cc2)CC1.O=C(O)C(F)(F)F
4. CC(C)CC(NC(=O)c1ccc(C(=NNC(=N)N)c2ccccc2)cc1)C(=O)N1CCN(C(=O)C(Cc2ccccc2)NC(=O)c2ccc([N+](=O)[O-])cc2)CC1 (mixture of isomers)

["40 % of DMSO control", "40 % of DMSO control", "35 % of DMSO control", "42 % of DMSO control"]

Looking for the measured TNFα Secretion (% of DMSO control) of CC(C)CC(NC(=O)c1ccc(C(=NNC(=N)N)c2ccccc2)cc1)C(=O)N1CCN(C(=O)C(Cc2ccccc2)NC(=O)c2ccccc2)CC1 (mixture of isomers) [MES 10231] , can you help?
49 % of DMSO control

====

# System: TNFα
# experiment_description: ELISA of TNFα secreted into the media after LPS
# Assay type: cell-based
# setup_conditions: 10 μM compound, 1 h, then LPS
Could you please report measured TNFα Secretion (% of DMSO control) for the items listed next?

Use these answered entries as a reference point.
O=C(N[C@@H](Cc1ccccc1)C(=O)N1CCN(C(=O)CCC(=O)N2CCN(c3ccccc3)CC2)CC1)c1ccc(C(=O)c2ccccc2)cc1; 65 % of DMSO control
CC(C)CC(NC(=O)c1ccc(C(=NNC(=N)N)c2ccccc2)cc1)C(=O)N1CCN(C(=O)C(CCc2ccccc2)NC(=O)c2ccc(C(=NNC(=N)N)c3ccccc3)cc2)CC1 (mixture of isomers); 22 % of DMSO control
C/C(=N\NC(=N)N)c1cccc(C(=O)N[C@@H](CC(C)C)C(=O)N2CCN(C(=O)[C@H](Cc3ccccc3)NCc3ccc(I)cc3)CC2)c1; 67 % of DMSO control
CC(C)C[C@H](NC(=O)c1ccc(C(=O)c2ccccc2)cc1)C(=O)N1CCN(C(=O)CCC(=O)N2CCN(c3ccccc3)CC2)CC1; 77 % of DMSO control
C/C(=N\NC(=N)N)c1cccc(C(=O)N[C@@H](CC(C)C)C(=O)N2CCN(C(=O)[C@H](Cc3ccccc3)NC(=O)c3ccc(OCc4ccccc4)cc3)CC2)c1; 45 % of DMSO control
CCCCC(NC(=O)c1cccc(C(C)=NNC(=N)N)c1)C(=O)N1CCN(C(=O)C(Cc2ccccc2)NC(=O)c2ccc(C(=NNC(=N)N)c3ccccc3)cc2)CC1 (mixture of isomers); 37 % of DMSO control
CC(C)C[C@H](NC(=O)c1ccccc1)C(=O)N1CCN(C(=O)[C@H](Cc2ccccc2)NC(=O)c2ccc(/C(=N\N=C(N)N)c3ccccc3)cc2)CC1.O=C(O)C(F)(F)F; 40 % of DMSO control
CC(=NN=C(N)N)c1cccc(C(=O)NC(Cc2ccccc2)C(=O)N2CCN(C(=O)C(CC(C)C)NC(=O)c3ccc(C(=NN=C(N)N)c4ccccc4)cc3)CC2)c1 (mixture of isomers); 55 % of DMSO control
CC(C)CC(NC(=O)c1ccc(C(=NNC(=N)N)c2ccccc2)cc1)C(=O)N1CCN(C(=O)C(Cc2ccc(-c3ccccc3)cc2)NC(=O)c2ccc(C(=NNC(=N)N)c3ccccc3)cc2)CC1 (mixture of isomers); 20 % of DMSO control
CC(C)CC(NC(=O)c1ccc(C(=NNC(=N)N)c2ccccc2)cc1)C(=O)N1CCN(C(=O)C(Cc2cccc3ccccc23)NC(=O)c2ccc(C(=NNC(=N)N)c3ccccc3)cc2)CC1 (mixture of isomers); 22 % of DMSO control

Would you mind giving TNFα Secretion (% of DMSO control) for every compound in the list below?
1. CC(C)CC(NC(=O)c1ccc(C(=NNC(=N)N)c2ccccc2)cc1)C(=O)N1CCN(C(=O)C(Cc2ccccc2)NC(=O)c2ccccc2)CC1 (stereo not shown) [MES 10247]
2. CC(=NN=C(N)N)c1cccc(C(=O)NC(CC(C)C)C(=O)NCCCNC(=O)C(Cc2ccccc2)NC(=O)c2ccc(C(=NN=C(N)N)c3ccccc3)cc2)c1 (mixture of isomers)
3. C/C(=N\NC(=N)N)c1cccc(C(=O)N[C@@H](CC(C)C)C(=O)N2CCN(C(=O)[C@H](Cc3ccccc3)NCc3ccc([N+](=O)[O-])cc3)CC2)c1
4. CC(C)CC(NC(=O)c1ccc(C(=NNC(=N)N)c2ccccc2)cc1)C(=O)N1CCN(C(=O)C(Cc2ccccc2)NC(=O)c2ccccc2)CC1 (stereo not shown) [MES 10248]
5. C/C(=N\NC(=N)N)c1cccc(C(=O)N[C@@H](CC(C)C)C(=O)N2CCN(C(=O)[C@H](Cc3ccccc3)NCc3ccccc3)CC2)c1
6. CC(C)CC(NC(=O)c1ccc(C(=NNC(=N)N)c2ccccc2)cc1)C(=O)N1CCN(C(=O)C(Cc2ccc3ccccc3c2)NC(=O)c2ccc(C(=NNC(=N)N)c3ccccc3)cc2)CC1 (mixture of isomers)
7. CC(C)CC(NC(=O)c1ccc(C(=NNC(=N)N)c2ccccc2)cc1)C(=O)N1CCN(C(=O)C(Cc2ccc(F)cc2)NC(=O)c2ccc(C(=NNC(=N)N)c3ccccc3)cc2)CC1 (mixture of isomers)
8. CC(C)CC(NC(=O)c1ccc(C(=NNC(=N)N)c2ccccc2)cc1)C(=O)N1CCN(C(=O)C(Cc2ccc(Cl)cc2)NC(=O)c2ccc(C(=NNC(=N)N)c3ccccc3)cc2)CC1 (mixture of isomers)

["39 % of DMSO control", "50 % of DMSO control", "73 % of DMSO control", "39 % of DMSO control", "100 % of DMSO control", "33 % of DMSO control", "34 % of DMSO control", "17 % of DMSO control"]

Kindly give each listed record's TNFα Secretion (% of DMSO control).
1. CC(C)CC(NC(=O)c1ccc(C(=NNC(=N)N)c2ccccc2)cc1)C(=O)N1CCN(C(=O)C(CC2CCCCC2)NC(=O)c2ccc(C(=NNC(=N)N)c3ccccc3)cc2)CC1 (mixture of isomers)
2. CC(=NNC(=N)N)c1cccc(C(=O)NC(CC(C)C)C(=O)N2CCN(C(=O)C(Cc3ccc(Cl)cc3)NC(=O)c3ccc(C(=NNC(=N)N)c4ccccc4)cc3)CC2)c1 (mixture of isomers)
3. CC(=NNC(=N)N)c1ccc(C(=O)NC(Cc2ccccc2)C(=O)N2CCN(C(=O)C(CC(C)C)NC(=O)c3cccc(C(C)=NNC(=N)N)c3)CC2)cc1 (mixture of isomers)
4. C/C(=N\NC(=N)N)c1cccc(C(=O)N[C@@H](CC(C)C)C(=O)N2CCN(C(=O)[C@H](Cc3ccccc3)NCc3ccc(-c4ccccc4)cc3)CC2)c1

1. 23 % of DMSO control
2. 42 % of DMSO control
3. 88 % of DMSO control
4. 48 % of DMSO control
